The values you see were collected from patent US6214821A.

# assay.procedure: Tissue distribution of UCN-01 in rats, effect of human AGP
# Type: in vivo, male Wistar rats
# condition.label: rat, kidney, iv, 10 mg/kg, kidney; UCN-01 + human AGP, 1 h; read-out: tissue concentration

{"compound": "CN[C@@H]1C[C@H]2O[C@@](C)([C@@H]1OC)n1c3ccccc3c3c4c(c5c6ccccc6n2c5c31)C(=O)N[C@@H]4O [UCN-01, 7-hydroxystaurosporine]", "concentration at 1 h / ng/g": 39400}

* * *

# assay.procedure: Tissue distribution of UCN-01 in rats, effect of human AGP
# Type: in vivo, male Wistar rats
# condition.label: rat, muscle, iv, 10 mg/kg, muscle; UCN-01 + human AGP, 1 h; read-out: Tissue/Plasma ratio

{"compound": "CN[C@@H]1C[C@H]2O[C@@](C)([C@@H]1OC)n1c3ccccc3c3c4c(c5c6ccccc6n2c5c31)C(=O)N[C@@H]4O [UCN-01, 7-hydroxystaurosporine]", "Kp at 1 h": 2.27}

* * *

# assay.procedure: Tissue distribution of UCN-01 in rats, effect of human AGP
# Format: in vivo, male Wistar rats
# condition.label: rat, liver, iv, 10 mg/kg, liver; UCN-01 + human AGP, 1 h; read-out: tissue concentration

{"molecule": "CN[C@@H]1C[C@H]2O[C@@](C)([C@@H]1OC)n1c3ccccc3c3c4c(c5c6ccccc6n2c5c31)C(=O)N[C@@H]4O [UCN-01, 7-hydroxystaurosporine]", "concentration at 1 h (ng/g)": 30100}

* * *

# assay.procedure: Tissue distribution of UCN-01 in rats, effect of human AGP
# Format: in vivo, male Wistar rats
# condition.label: rat, kidney, iv, 10 mg/kg, kidney; UCN-01 10 mg/kg alone, 1 h; read-out: tissue concentration

{"compound": "CN[C@@H]1C[C@H]2O[C@@](C)([C@@H]1OC)n1c3ccccc3c3c4c(c5c6ccccc6n2c5c31)C(=O)N[C@@H]4O [UCN-01, 7-hydroxystaurosporine]", "concentration at 1 h (ng/g)": 73200}
